# System: C. albicans DSY1050
# ASSAY METHOD TEXT: microbe, parasite or virus in culture
# Assay type: cell-based, Candida albicans
# PARTICULARS: DSY1050 vs CAF2-1
RECORDED METRIC: times more susceptible than parental strain (CAF2-1)

COMPOUND	VALUE OBSERVED
O=P(CN1CCN(c2ccc(OC[C@H]3CO[C@](Cn4ccnc4)(c4ccc(Cl)cc4Cl)O3)cc2)CC1)(c1ccccc1)c1ccccc1 (racemic) [KeOP, Ph2P(O)CH2-Ke]	four
Clc1ccc([C@@]2(Cn3ccnc3)OC[C@H](COc3ccc(N4CCN(CP(c5ccccc5)c5ccccc5)CC4)cc3)O2)c(Cl)c1 (racemic) [KeP, Ph2PCH2-Ke]	four
Clc1ccc([C@@]2(Cn3ccnc3)OC[C@H](COc3ccc(N4CCN(CP(=[Se])(c5ccccc5)c5ccccc5)CC4)cc3)O2)c(Cl)c1 [KeSeP, Ph2P(Se)CH2-Ke]	four
S=P(CN1CCN(c2ccc(OC[C@H]3CO[C@](Cn4ccnc4)(c4ccc(Cl)cc4Cl)O3)cc2)CC1)(c1ccccc1)c1ccccc1 [KeSP, Ph2P(S)CH2-Ke]	eight

---

# Tested on: C. albicans Gu5
# ASSAY METHOD TEXT: microbe, parasite or virus in culture
# Assay type: cell-based, Candida albicans
# PARTICULARS: Candida albicans, GU5, 48 h
In this section we review reported MIC50 values for a set of compounds.
RECORDED METRIC: MIC50

COMPOUND	TARGET ENTITY	RECORDED METRIC	VALUE OBSERVED
CC(=O)N1CCN(c2ccc(OCC3COC(Cn4ccnc4)(c4ccc(Cl)cc4Cl)O3)cc2)CC1 (stereo not drawn) [Ke, ketoconazole, reference compound]	C. albicans Gu5	MIC50	50 µM
S=P(CN1CCN(c2ccc(OC[C@H]3CO[C@](Cn4ccnc4)(c4ccc(Cl)cc4Cl)O3)cc2)CC1)(c1ccccc1)c1ccccc1 [KeSP, Ph2P(S)CH2-Ke]	C. albicans Gu5	MIC50	> 200 µM
Clc1ccc([C@@]2(Cn3ccnc3)OC[C@H](COc3ccc(N4CCN(CP(=[Se])(c5ccccc5)c5ccccc5)CC4)cc3)O2)c(Cl)c1 [KeSeP, Ph2P(Se)CH2-Ke]	C. albicans Gu5	MIC50	> 200 µM

---

# System: S. cerevisiae erg6Δ
# ASSAY METHOD TEXT: MIC50 growth inhibition, S. cerevisiae erg6Δ deletion mutant, 48 h
# Type: cell-based, Saccharomyces cerevisiae
# PARTICULARS: Saccharomyces cerevisiae

COMPOUND	TARGET ENTITY	UNITS	COMPARATOR	MIC50
S=P(CN1CCN(c2ccc(OC[C@H]3CO[C@](Cn4ccnc4)(c4ccc(Cl)cc4Cl)O3)cc2)CC1)(c1ccccc1)c1ccccc1 [KeSP, Ph2P(S)CH2-Ke]	S. cerevisiae erg6Δ	µM	>	200
CC(=O)N1CCN(c2ccc(OCC3COC(Cn4ccnc4)(c4ccc(Cl)cc4Cl)O3)cc2)CC1 (centres unmarked) [Ke, ketoconazole, reference compound]	S. cerevisiae erg6Δ	µM	>	200
O=P(CN1CCN(c2ccc(OC[C@H]3CO[C@](Cn4ccnc4)(c4ccc(Cl)cc4Cl)O3)cc2)CC1)(c1ccccc1)c1ccccc1 (racemic)	S. cerevisiae erg6Δ	µM	=	0.00482
Clc1ccc([C@@]2(Cn3ccnc3)OC[C@H](COc3ccc(N4CCN(CP(c5ccccc5)c5ccccc5)CC4)cc3)O2)c(Cl)c1 (racemic)	S. cerevisiae erg6Δ	µM	=	0.654
Clc1ccc([C@@]2(Cn3ccnc3)OC[C@H](COc3ccc(N4CCN(CP(=[Se])(c5ccccc5)c5ccccc5)CC4)cc3)O2)c(Cl)c1 [KeSeP, Ph2P(Se)CH2-Ke]	S. cerevisiae erg6Δ	µM	=	0.578
